Molecular target: Tyrosine-protein kinase transforming protein Src (Rous sarcoma virus)
Assay: Inhibition of [125I]phosphopeptide binding to Src SH2 domain.
Would you mind telling me the reported IC50 of each entry?

[Q] Given the entry "CC[C@H](C)[C@H](NC(=O)[C@H](CCC(=O)O)NC(=O)[C@H](CCC(=O)O)NC(=O)[C@@H](CC(=O)O)Cc1ccc(OP(=O)(O)O)cc1)C(=O)N[C@@H](CCC(=O)O)C(=O)O" , what IC50 was observed with Tyrosine-protein kinase transforming protein Src (Rous sarcoma virus)?
[A] 0.4 µM

[Q] Given the entry "CN(CCCC1CCCCC1)C(=O)[C@H](CCC(=O)O)NC(=O)NCc1ccc(OP(=O)(O)O)cc1" , what IC50 was observed with Tyrosine-protein kinase transforming protein Src (Rous sarcoma virus)?
[A] 12 µM
